We begin with IC50 values for mitochondrial RNA-polymerase (POLRMT) (Mus musculus), as collected from the published literature.

Recorded results for 10 compounds are shown here.
C[C@@H](Oc1ccc2c(-c3ccc(F)cc3Cl)cc(=O)oc2c1)C(=O)N1CCN[C@H](C(=O)O)C1
20 to 100 nM
COc1ccc(NC(=O)C(C)Oc2ccc3c(-c4ccccc4)cc(=O)oc3c2)cc1 (stereo not shown)
1000 to 10000 nM
CCNC(=O)C(C)Oc1ccc2c(-c3ccc(F)cc3Cl)cc(=O)oc2c1 (stereo not shown)
20 to 100 nM
CCCCOC(=O)COc1ccc2c(-c3ccccc3)cc(=O)oc2c1
1000 to 10000 nM
C[C@@H](Oc1ccc2c(-c3ccccc3Cl)cc(F)nc2c1)C(=O)N1CCC[C@H](C(=O)O)C1
< 20 nM
Cc1cc(F)cc(C)c1-c1ccnc2cc(O[C@H](C)C(=O)N3CCOCC3)ccc12
< 20 nM
Cc1cc(F)cc(C)c1-c1ccnc2cc(O[C@H](C)C(=O)N3CCC4(CC3)COC4)ccc12
< 20 nM
C[C@@H](Oc1ccc2c(-c3ccc(F)cc3Cl)ccnc2c1)C(=O)N1CCCC(CS(N)(=O)=O)C1 (mixture of isomers)
100 to 1000 nM
C[C@H](Oc1ccc2c(-c3ccccc3Cl)ccnc2c1)C(=O)N1CCC[C@@H](C(=O)O)C1
1000 to 10000 nM
Cc1cccc(C)c1-c1ccnc2cc(O[C@H](C)C(=O)N3CCC[C@H](S(N)(=O)=O)C3)ccc12
< 20 nM

Report IC50 for CC(C)(Oc1ccc2c(-c3ccccc3Cl)cc(=O)oc2c1)C(=O)O
100 to 1000 nM

Report IC50 for Cc1cc(F)cc(C)c1-c1ccnc2cc(O[C@H](C)C(=O)N3CCC[C@H](C(=O)O)C3)ccc12
< 20 nM

Report IC50 for C[C@@H](Oc1ccc2c(-c3ccccc3Cl)ccnc2c1)C(=O)N1CCC[C@@H](C(=O)O)C1
< 20 nM

Report IC50 for C[C@@H](Oc1ccc2c(-c3ccc(F)cc3Cl)ccnc2c1)C(=O)O
100 to 1000 nM

Report IC50 for Cc1ccccc1-c1cc(=O)oc2cc(O[C@H](C)C(=O)OC(C)C)ccc12
< 20 nM

Report IC50 for COc1ccccc1-c1ccnc2cc(O[C@H](C)C(=O)N3CCC[C@H](CC(=O)O)C3)ccc12
1000 to 10000 nM
